// provenance: the RNAGym collection of RNA variant scans (doi:10.1093/molbev/msab373)

B1: Azoarcus group I ribozyme (parent)
chain: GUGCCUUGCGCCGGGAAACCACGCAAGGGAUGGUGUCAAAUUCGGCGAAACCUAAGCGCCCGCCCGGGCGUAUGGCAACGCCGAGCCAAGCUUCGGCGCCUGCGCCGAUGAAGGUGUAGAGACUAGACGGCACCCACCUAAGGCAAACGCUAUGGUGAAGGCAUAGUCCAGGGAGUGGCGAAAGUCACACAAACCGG

- Variants of: B1
- PROTOCOL DESCRIPTION: reverse-splicing fitness (ratio to wild type); higher = more active; in vitro selection; Mg2+ level not given
Items are presented alongside their recorded reverse-splicing fitness.
Give the figure by itself; no unit, no explanation.

Answered cases to consult:
CHANGE: C82U A111C A145G U176C
reverse-splicing fitness: 0.113
//
CHANGE: C82G A120G A145U C150G C169U U176A
reverse-splicing fitness: 0.0125
//
CHANGE: A111C C150G C169G U176G
reverse-splicing fitness: 0.00532
//
CHANGE: C82U A111U A120U A145U C150A C169G
reverse-splicing fitness: 0.00254
//
CHANGE: C82A A111G A120G A145U C150U C169U U176G
reverse-splicing fitness: 0.00555

The variant C82A A111U A120G U176C showed reverse-splicing fitness equal to 0.0189

# reverse-splicing fitness (variant: A120U C150G U176A ) is 0.0739

// recorded reverse-splicing fitness for C82A A111U A120U A145G C150U C169U : 0.00663

The variant listed as A111G A120U A145C U176G has a reported reverse-splicing fitness of 0.131

Recorded result, C82U C150U C169U , reverse-splicing fitness: 0.0129

Field reverse-splicing fitness (entry C82G A120U A145U C150G U176C ) reads 0.0112

The reported value for C82U A111C A120G A145G C150A C169A U176A in terms of reverse-splicing fitness is 0.0155

For this variant ( C82G A111G A145C C169A ), measured reverse-splicing fitness is 0.00733

For this variant ( C82U A120G A145U C150G C169G U176A ), measured reverse-splicing fitness is 0.00669

Field reverse-splicing fitness (entry C82A A111C A120G A145U C150G C169A ) reads 0.00851

Form field reverse-splicing fitness, entry A111U A120C C150U C169G U176G : 0.00495

// reverse-splicing fitness value for C82G A111G A120G A145C C150A : 0.00699

Given item C82G A111G A120G A145C C150G , the value recorded as its reverse-splicing fitness is 0.00711

Measured reverse-splicing fitness, C82A A111C A120U C150U C169U U176G : 0.0027

Value of measured reverse-splicing fitness for the entry C82A A120U A145G C150U C169U U176C : 0.00493

Entry under test: C82G A111U A120G A145G C150U C169G U176C . Its reverse-splicing fitness was 0.0192

Measured reverse-splicing fitness, C82G A111G A120U A145G C169U U176G : 0.00164
